Data origin: PubChem BioAssay AID624129

# experimental.target: UniProtKB P51684
# procedure.details: potency against CXCR6 with APJ panel – cell-based, beta-arrestin, DiscoveRx, uHTS hits, dose response (AID 624129)
# stated.conditions: CXCR6 beta-arrestin (DiscoveRx) antagonist cell assay, CCR6, dose range 1, mean IC50 across replicates
measured.attribute: pIC50
// scale note: pIC50 = -log10(conc_M); give the bare number

These solved cases illustrate the format of a correct answer.
| compound | readout.number |
| --- | --- |
| Cc1cc(Cl)n2c(nc3cc(F)c(F)cc32)c1C#N | 5.01 |
| COc1ccc(N2C(=O)CC(Sc3nnnn3-c3ccc(F)cc3)C2=O)cc1 (stereo not given) | 5.02 |
| COC(=O)c1ccc2c(c1)C(C)(C)C(/C=C/c1ccc(OC)c(OC)c1OC)=[N+]2C | 5.03 |
| O=[N+]([O-])c1ccc(Sc2cccc[n+]2[O-])c2nonc12 | 4.94 |

// moving on: another record for pIC50
pIC50 reading for CS(=O)(=O)c1sc(C#N)c2c1C(=O)CC(c1ccccc1)C2 (stereo not given) : 4.42
